# assayed-target: GST-tagged-Wee1 kinase (Homo sapiens)
# assay-summary: Wee1 time-resolved fluorescence equilibrium binding assay (displacement of Oregon Green-labeled ATP-competitive kinase probe)
# label = bin(measured Ki), where bins are low value: < 0.3 nM; medium value: ≥ 0.3 nM and < 2 nM; high value: ≥ 2 nM

For orientation, consider the following solved cases.
INSERT INTO assay_data (structure_notation, assigned_category) VALUES
  ('O=c1c2cnc(Nc3ccc4c(c3)CNCC43CC3)nc2c(C(F)F)nn1-c1c(Cl)cccc1Cl', 'low value'),
  ('Cc1nn(-c2c(Cl)cccc2Cl)c(=O)c2cnc(Nc3cccc(N4CCNCC4)c3)nc12', 'medium value'),
  ('Cc1cccc(-c2nn(-c3ccccc3Cl)c(=O)c3cnc(Nc4ccc(N5CCN(C)CC5)cc4)nc23)c1', 'medium value');

Please let me know in which category the item C=CCn1nc(-c2cccs2)c2nc(Nc3ccc(N4CCN(C(C)C)CC4)c(OC)c3)ncc2c1=O belongs.
high value

Moving on to the next compound: CN1CCN(Cc2cccc(-c3nn(-c4c(Cl)cccc4Cl)c(=O)c4cnc(Nc5ccc(N6CCN(C)CC6)cc5)nc34)c2)CC1
low value

----------
The entries below are paired with their reported log10 of Ki.
# assayed-target: GST-tagged-Wee1 kinase (Homo sapiens)
# assay-summary: Wee1 time-resolved fluorescence equilibrium binding assay (displacement of Oregon Green-labeled ATP-competitive kinase probe)
Heads up: the numbers are on a log10 scale; they represent Ki in nM.

# example entries with known answers
INSERT INTO measurements (structure_notation, assayed_target, measured_value) VALUES
  ('CN1Cc2cc(Nc3ncc4c(=O)n(-c5c(Cl)cccc5Cl)nc(-c5ccccn5)c4n3)ccc2C(C)(C)C1', 'GST-tagged-Wee1 kinase (Homo sapiens)', -1.00),
  ('CN1CCN(c2ccc(Nc3ncc4c(=O)n(-c5ccccc5)nc(-c5ccccn5)c4n3)cc2)CC1', 'GST-tagged-Wee1 kinase (Homo sapiens)', 0.78),
  ('CC1(C)CNCc2cc(Nc3ncc4c(=O)n(C5CCCCC5)nc(-c5ccccn5)c4n3)ccc21', 'GST-tagged-Wee1 kinase (Homo sapiens)', 2.80);

Here is another compound to look at.
Which value of log10 of Ki has been reported for CN1CCN(c2ccc(Nc3ncc4c(=O)n(-c5c(Cl)cccc5Cl)nc(-c5ccc(C(=O)N(C)C)cc5)c4n3)cc2)CC1 in the records?
-0.42

----------
Recorded Ki for the following compounds
# assayed-target: UniProtKB P30291
# assay-summary: Wee1 time-resolved fluorescence equilibrium binding assay (displacement of Oregon Green-labeled ATP-competitive kinase probe)
Numbers only here, please. The scale is nM.

Reference set, count: 2
INSERT INTO measurements (compound, assayed_target, unit_symbol, measured_value) VALUES
  ('CS(=O)(=O)N1Cc2cc(Nc3ncc4c(=O)n(-c5c(Cl)cccc5Cl)nc(-c5ccncc5)c4n3)ccc2C2(CC2)C1 [Example 381]', 'UniProtKB P30291', 'nM', 0.81),
  ('CN1CCN(c2ccc(Nc3ncc4c(=O)n(-c5c(Cl)cccc5Cl)nc(-c5cccc(C(=O)O)c5)c4n3)cc2)CC1 [Example 190]', 'UniProtKB P30291', 'nM', 0.01);

// below: Ki requested for another compound
Please give the measured Ki for this compound: CN1CCc2ccc(Nc3ncc4c(=O)n(-c5ccccc5Cl)nc(-c5cccs5)c4n3)cc2C1 [Example 167]
0.4

----------
Each item that follows carries a reported Ki.
# assayed-target: GST-tagged-Wee1 kinase (Homo sapiens, UniProt P30291)
# Sequence (P30291 whole entry): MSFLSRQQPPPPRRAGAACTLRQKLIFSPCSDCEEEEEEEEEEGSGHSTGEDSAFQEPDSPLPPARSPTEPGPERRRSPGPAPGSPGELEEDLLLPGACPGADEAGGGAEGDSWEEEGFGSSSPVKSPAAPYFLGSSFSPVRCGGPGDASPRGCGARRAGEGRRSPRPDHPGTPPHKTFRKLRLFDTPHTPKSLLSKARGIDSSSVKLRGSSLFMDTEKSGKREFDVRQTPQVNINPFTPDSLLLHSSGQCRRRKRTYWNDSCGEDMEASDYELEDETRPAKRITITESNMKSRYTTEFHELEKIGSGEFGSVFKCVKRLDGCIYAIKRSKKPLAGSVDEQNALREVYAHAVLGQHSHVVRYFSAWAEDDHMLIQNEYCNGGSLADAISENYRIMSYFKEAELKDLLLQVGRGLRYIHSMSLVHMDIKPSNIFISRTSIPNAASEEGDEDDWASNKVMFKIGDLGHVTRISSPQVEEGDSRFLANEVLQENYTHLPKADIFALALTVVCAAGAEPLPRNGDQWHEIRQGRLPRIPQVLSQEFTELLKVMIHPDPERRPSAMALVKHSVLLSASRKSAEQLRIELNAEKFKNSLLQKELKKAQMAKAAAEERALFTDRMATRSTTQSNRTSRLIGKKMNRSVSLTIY
# assay-summary: Wee1 time-resolved fluorescence equilibrium binding assay (displacement of Oregon Green-labeled ATP-competitive kinase probe)
# Description: Wee1 kinase was assayed using a time-resolved fluorescence equilibrium binding assay monitoring displacement of a rapidly reversible Oregon Green-labeled ATP-competitive kinase probe (N-(2-(2-(2-(4-(4-(5-chloro-4-(2-(1-hydroxycyclobutyl)thiazol-5-yl)-1H-pyrrolo[2,3-b]pyridin-2-yl)phenyl)piperazin-1-yl)ethoxy)ethoxy)ethyl)-2′,7′-difluoro-3′,6′-dihydroxy-3-oxo-3H-spiro[isobenzofuran-1,9′-xanthene]-5-carboxamide) by competitive Wee1 inhibitors.
Field: value (include unit after the number)

INSERT INTO measurements (structure_notation, assayed_target, measured_value) VALUES
  ('CN1CCC(n2nc(-c3ccccn3)c3nc(Nc4ccc5c(c4)CN(C)CC5(C)C)ncc3c2=O)CC1', 'GST-tagged-Wee1 kinase (Homo sapiens, UniProt P30291)', '220 nM'),
  ('CCc1nn(-c2c(Cl)cccc2Cl)c(=O)c2cnc(Nc3ccc(N4CCNCC4)cc3)nc12', 'GST-tagged-Wee1 kinase (Homo sapiens, UniProt P30291)', '1 nM');

Now look at this one.
Quick one: Ki for Cn1cnc(-c2nn(-c3ncccc3Cl)c(=O)c3cnc(Nc4ccc5c(c4)CNCC54CC4)nc23)c1 ?
12 nM

----------
# assayed-target: GST-tagged-Wee1 kinase (Homo sapiens)
# assay-summary: Wee1 time-resolved fluorescence equilibrium binding assay (displacement of Oregon Green-labeled ATP-competitive kinase probe)
assay-readout: pKi
# reply with the number alone; pKi is -log10 of concentration in mol/L

INSERT INTO assay_data (compound, measured_value) VALUES
  ('CN1CCN(c2ccc(Nc3ncc4c(=O)n(-c5ccncc5Cl)nc(-c5ccncc5)c4n3)cc2)CC1 [Example 382]', 8.12),
  ('CC1(C)CNCc2cc(Nc3ncc4c(=O)n(-c5cccc6ccccc56)nc(-c5ccccn5)c4n3)ccc21 [Example 306]', 7.30),
  ('CN1CCN(c2ccc(Nc3ncc4c(=O)n(-c5c(Cl)cccc5Cl)nc(-c5ccc(Br)cc5)c4n3)cc2)CC1 [Example 276]', 8.96),
  ('Cc1nn(-c2c(Cl)cccc2Cl)c(=O)c2cnc(Nc3cccc(C(=O)N4CCN(C)CC4)c3)nc12 [Example 528]', 8.62),
  ('CN1Cc2cc(Nc3ncc4c(=O)n(C5CCNCC5)nc(-c5ccccn5)c4n3)ccc2C(C)(C)C1 [Example 304]', 6.21);

Look up pKi for this compound: Cc1nn(-c2c(Cl)cccc2Cl)c(=O)c2cnc(Nc3ccc(N4CCN(CCCN(C)C)CC4)cc3)nc12 [Example 517]
9.62

// next record CC(C)N1CCN(c2ccc(Nc3ncc4c(=O)n(-c5ccccc5Cl)nc(-c5cccs5)c4n3)cc2)CC1 [Example 122]
9.30

What do we get for CC(O)Cn1nc(-c2ccccn2)c2nc(Nc3ccc4c(c3)CNCC4(C)C)ncc2c1=O (centres unmarked) [Example 295] ?
6.30

----------
Recorded pKi for the following compounds
# assayed-target: GST-tagged-Wee1 kinase (Homo sapiens)
# assay-summary: Wee1 time-resolved fluorescence equilibrium binding assay (displacement of Oregon Green-labeled ATP-competitive kinase probe)
In plain terms, pKi is the concentration in mol/L turned into minus its base-10 logarithm.

The examples below pair each entry with its known result.
INSERT INTO measurements (compound, assayed_target, assay_readout, measured_value) VALUES
  ('CN1CCN(c2ccc(Nc3ncc4c(=O)n(-c5c(Cl)cccc5Cl)nc(-c5ccn(CCN6CCCCC6)n5)c4n3)cc2)CC1 [Example 232]', 'GST-tagged-Wee1 kinase (Homo sapiens)', 'pKi', 9.70),
  ('C=CCn1nc(-c2ccco2)c2nc(Nc3ccc(N4CCN(C(C)C)CC4)c(C)c3)ncc2c1=O [Example 146]', 'GST-tagged-Wee1 kinase (Homo sapiens)', 'pKi', 8.52),
  ('Cc1cc(Nc2ncc3c(=O)n(-c4c(Cl)cccc4Cl)nc(-c4cnn(C)c4)c3n2)ccc1N1CCCN(C)CC1 [Example 150]', 'GST-tagged-Wee1 kinase (Homo sapiens)', 'pKi', 10.00);

Fill in the blank: the reported pKi of Cc1ccccc1-n1nc(Cc2ccccc2)c2nc(Nc3ccc(N4CCN(C)CC4)cc3)ncc2c1=O [Example 20] is ____.
7.72

Now give it for CCc1nn(-c2c(Cl)cccc2Cl)c(=O)c2cnc(Nc3ccc4c(c3)CC(N(C)C)C4)nc12 (centres unmarked) [Example 406] too.
9.15

And for Cc1cccc(Cl)c1-n1nc(C)c2nc(Nc3ccc4c(c3)CN(C)CC4(C)C)ncc2c1=O [Example 498] ?
9.64

Here is the next compound: O=c1c2cnc(Nc3ccc(N4CCNCC4)cc3)nc2c(-c2ccncc2)nn1-c1c(F)cccc1Cl [Example 297]
9.72

What do we get for CN1Cc2cc(Nc3ncc4c(=O)n(-c5c(Cl)cccc5Cl)nc(-c5cncs5)c4n3)ccc2C2(CC2)C1 [Example 317] ?
9.42

----------
# assayed-target: UniProt P30291
# assay-summary: Wee1 time-resolved fluorescence equilibrium binding assay (displacement of Oregon Green-labeled ATP-competitive kinase probe)
assay-readout: Ki (nM)
State the answer as a number, implicitly in nM.

Bench note: what Ki did Cc1ccccc1-n1nc(-c2cccc(Br)c2)c2nc(Nc3ccc(N4CCN(C)CC4)cc3)ncc2c1=O show?
4

Entry to check: Cc1ccccc1-c1nn(-c2c(Cl)cccc2Cl)c(=O)c2cnc(Nc3ccc(N4CCN(C)CC4)cc3)nc12
0.2

Subsequent entry: CN(C)Cc1cccc(-c2nn(-c3c(Cl)cccc3Cl)c(=O)c3cnc(Nc4ccc(N5CCN(C)CC5)cc4)nc23)c1
0.03
